# collection of Ki values tested on Carbonic anhydrase (Saccharomyces cerevisiae S288c, UniProt P53615)
# Sequence (P53615 whole entry): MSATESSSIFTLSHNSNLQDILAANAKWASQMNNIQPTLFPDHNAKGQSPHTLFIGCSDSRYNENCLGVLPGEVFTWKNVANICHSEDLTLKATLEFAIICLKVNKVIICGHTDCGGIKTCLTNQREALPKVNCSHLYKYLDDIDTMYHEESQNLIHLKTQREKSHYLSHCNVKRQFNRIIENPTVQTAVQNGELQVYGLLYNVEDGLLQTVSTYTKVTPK
# value in nM; strip the unit string

Given Cc1ccc(S(N)(=O)=O)cc1 [P-TOLUENESULFONAMIDE] , respond with its Ki.
16100

Given Nc1ccc(S(=O)(=O)NCCc2ccc(S(N)(=O)=O)cc2)cc1 , respond with its Ki.
154

Given NCc1ccc(S(N)(=O)=O)cc1 [MAFENIDE] , respond with its Ki.
433

Given NS(=O)(=O)c1ccc(CO)cc1 , respond with its Ki.
8970

Given Nc1ccc(S(N)(=O)=O)cc1Cl , respond with its Ki.
457

Given NS(=O)(=O)c1ccc(C(=O)O)cc1 [CARZENIDE] , respond with its Ki.
14500

Given Cc1ccc(-c2cc(C(F)(F)F)nn2-c2ccc(S(N)(=O)=O)cc2)cc1 , respond with its Ki.
108

Given CCN[C@H]1CN(CCCOC)S(=O)(=O)c2sc(S(N)(=O)=O)cc21 [BRINZOLAMIDE] , respond with its Ki.
114

Given O=C1NS(=O)(=O)c2ccccc21 , respond with its Ki.
12500

Given Nc1ccc(S(N)(=O)=O)cc1 [SULFANILAMIDE] , respond with its Ki.
18500

Given CC1(C)O[C@@H]2[C@@H](CO[C@@]3(COS(N)(=O)=O)OC(C)(C)O[C@@H]23)O1 [TOPIRAMATE] , respond with its Ki.
110

Given NCCc1ccc(S(N)(=O)=O)cc1 , respond with its Ki.
163

Given NS(=O)(=O)c1nnc(NS(=O)(=O)c2ccccc2)s1 [BENZOLAMIDE] , respond with its Ki.
111

Given Nc1cc(C(F)(F)F)c(S(N)(=O)=O)cc1S(N)(=O)=O , respond with its Ki.
223

Given Nc1ccc(S(N)(=O)=O)cc1I , respond with its Ki.
976
